- System: FXR:RXRa (NR concentration 270 nM, RXRa partner concentration 90 nM)
- Procedure summary: PBM binding z-score (relative to random genomic background probes); higher = stronger binding; sequences stand for … in GC…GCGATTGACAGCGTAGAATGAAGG
Quick list: PBM binding z-score per entry.
Give the figure by itself; no unit, no explanation.

Worked cases, answers included:
TCTCGGAGTACACGAAGGTCAGAGCTTTCCAGAG :: 0.57
ATCTCTAGGTAAGAATCAGTTCAGTGAAGAACGC :: 0.825
CCGAGTGGGTTATGGGGCATTCAGGCAACGGTGA :: 0.128
CGAACTAGGTCAACCAGGACAGTGAATACATTGA :: 4.29
AATACAGGGTCATCGTAGGCCAGAGGACGCACAG :: 7.28

Now, please, on to the next sequence.
The reported PBM binding z-score of the sequence "CCTAGTTGGTCAGGAGGTCACACATCGGATATGA" was 3.47
